For each entry below, report its shrunken log2 fold change value.
# System: Escherichia coli TOP10
# procedure.text: shrunken log2 fold change of peptide-encoding DNA abundance (4.5 h post-induction vs induction); higher = less antimicrobial activity (less host growth inhibition)
# condition: time post-induction: 4.5 h; library: site-saturation at positions 5, 18, 19, 20
Give bare numbers.

Study these solved cases before continuing.
sequence.entry: RRIRWRPPRLPRPRPRPAGAPRP
shrunken log2 fold change: 0.392
--
sequence.entry: RRIRYRPPRLPRPRPRPSTSPRP
shrunken log2 fold change: 1.42
--
sequence.entry: RRIRVRPPRLPRPRPRPGDNPRP
shrunken log2 fold change: 0.174
--
sequence.entry: RRIRPRPPRLPRPRPRPFTPPRP
shrunken log2 fold change: -0.112
--
sequence.entry: RRIRCRPPRLPRPRPRPMNAPRP
shrunken log2 fold change: -0.422
--
sequence.entry: RRIRKRPPRLPRPRPRPEAHPRP
shrunken log2 fold change: 0.151

# batch size: 4; output shrunken log2 fold change per entry
1. RRIRGRPPRLPRPRPRPGRDPRP
2. RRIRMRPPRLPRPRPRPVFTPRP
3. RRIRARPPRLPRPRPRPRRWPRP
4. RRIRMRPPRLPRPRPRPGDNPRP

[0.358, 0.128, 0.739, -0.00193]

# batch size: 5; output shrunken log2 fold change per entry
1. RRIRYRPPRLPRPRPRPHFWPRP
2. RRIRYRPPRLPRPRPRPRQNPRP
3. RRIRYRPPRLPRPRPRPGMNPRP
4. RRIRYRPPRLPRPRPRPKPLPRP
5. RRIRRRPPRLPRPRPRPIYGPRP

1: -0.257; 2: 0.345; 3: -0.227; 4: 0.276; 5: -0.69

###

# Test system: Escherichia coli TOP10
# procedure.text: shrunken log2 fold change of peptide-encoding DNA abundance (4.5 h post-induction vs induction); higher = less antimicrobial activity (less host growth inhibition)
# condition: time post-induction: 4.5 h; library: site-saturation at positions 5, 18, 19, 20
quantity.kind: shrunken log2 fold change
Give bare numbers.

Study these solved cases before continuing.
sequence.entry: RRIRMRPPRLPRPRPRPNREPRP
result: 0.0182

sequence.entry: RRIRVRPPRLPRPRPRPTQVPRP
result: 0.103

sequence.entry: RRIRYRPPRLPRPRPRPKDDPRP
result: -0.153

sequence.entry: RRIRNRPPRLPRPRPRPEKSPRP
result: 0.31

sequence.entry: RRIRHRPPRLPRPRPRPGVIPRP
result: -0.0357

sequence.entry: RRIRSRPPRLPRPRPRPIIYPRP
result: -0.182

sequence.entry: RRIRDRPPRLPRPRPRPWHRPRP
result: -0.017

sequence.entry: RRIRKRPPRLPRPRPRPWIRPRP
result: -0.336

sequence.entry: RRIRYRPPRLPRPRPRPWMAPRP
result: -0.288

sequence.entry: RRIRDRPPRLPRPRPRPTPVPRP
result: 0.405

# batch size: 5; output shrunken log2 fold change per entry
1. RRIRGRPPRLPRPRPRPWFHPRP
2. RRIRIRPPRLPRPRPRPPWHPRP
3. RRIRSRPPRLPRPRPRPYAVPRP
4. RRIRFRPPRLPRPRPRPVRGPRP
5. RRIRFRPPRLPRPRPRPHQNPRP

[-0.121, -0.126, -0.137, 0.576, -0.182]

###

# Test system: Escherichia coli TOP10
# procedure.text: shrunken log2 fold change of peptide-encoding DNA abundance (4.5 h post-induction vs induction); higher = less antimicrobial activity (less host growth inhibition)
# condition: time post-induction: 4.5 h; library: site-saturation at positions 5, 18, 19, 20
quantity.kind: shrunken log2 fold change
Answers are plain numbers.

sequence.entry: RRIRTRPPRLPRPRPRPDKDPRP
shrunken log2 fold change: -0.0511
//
sequence.entry: RRIRHRPPRLPRPRPRPSNYPRP
shrunken log2 fold change: -0.28
//
sequence.entry: RRIRARPPRLPRPRPRPPSYPRP
shrunken log2 fold change: 0.0336
//
sequence.entry: RRIRDRPPRLPRPRPRPGFGPRP
shrunken log2 fold change: 0.264
//
sequence.entry: RRIRWRPPRLPRPRPRPCHIPRP
shrunken log2 fold change: -0.414
//
sequence.entry: RRIRWRPPRLPRPRPRPVDVPRP
shrunken log2 fold change: -0.0135
//
sequence.entry: RRIRERPPRLPRPRPRPQKTPRP
shrunken log2 fold change: -0.0465

Any idea what shrunken log2 fold change was measured for `RRIRDRPPRLPRPRPRPKHQPRP` ? 0.0157

###

# Test system: Escherichia coli TOP10
# procedure.text: shrunken log2 fold change of peptide-encoding DNA abundance (4.5 h post-induction vs induction); higher = less antimicrobial activity (less host growth inhibition)
# condition: time post-induction: 4.5 h; library: site-saturation at positions 5, 18, 19, 20
quantity.kind: shrunken log2 fold change
Answers are plain numbers.

Study these solved cases before continuing.
sequence.entry: RRIRWRPPRLPRPRPRPGQMPRP
result: 0.0528
--
sequence.entry: RRIRKRPPRLPRPRPRPTGLPRP
result: 0.223
--
sequence.entry: RRIRMRPPRLPRPRPRPSTRPRP
result: 0.406
--
sequence.entry: RRIRLRPPRLPRPRPRPNEPPRP
result: -0.213
--
sequence.entry: RRIRNRPPRLPRPRPRPALPPRP
result: 0.248
--
sequence.entry: RRIRYRPPRLPRPRPRPHFIPRP
result: -0.214
--
sequence.entry: RRIRLRPPRLPRPRPRPNATPRP
result: 0.0161
--
sequence.entry: RRIRGRPPRLPRPRPRPAETPRP
result: -0.0775
--
sequence.entry: RRIRSRPPRLPRPRPRPQKVPRP
result: -0.203
--
sequence.entry: RRIRPRPPRLPRPRPRPWPAPRP
result: 0.0589

# batch size: 7; output shrunken log2 fold change per entry
1. RRIRQRPPRLPRPRPRPVNRPRP
2. RRIRHRPPRLPRPRPRPPADPRP
3. RRIRNRPPRLPRPRPRPENSPRP
4. RRIRVRPPRLPRPRPRPHFPPRP
5. RRIRDRPPRLPRPRPRPGTEPRP
6. RRIRSRPPRLPRPRPRPMETPRP
7. RRIRTRPPRLPRPRPRPVAQPRP

[0.00086, 0.492, -0.00522, 0.046, 0.974, 0.585, 0.26]

# batch size: 5; output shrunken log2 fold change per entry
1. RRIRPRPPRLPRPRPRPVFKPRP
2. RRIRQRPPRLPRPRPRPGTLPRP
3. RRIRIRPPRLPRPRPRPIARPRP
4. RRIRMRPPRLPRPRPRPPAPPRP
5. RRIRKRPPRLPRPRPRPWGPPRP

1. -0.189
2. -0.0134
3. 0.136
4. 2.01
5. -0.125

# batch size: 8; output shrunken log2 fold change per entry
1. RRIRIRPPRLPRPRPRPLCAPRP
2. RRIRTRPPRLPRPRPRPGCPPRP
3. RRIRNRPPRLPRPRPRPQQYPRP
4. RRIRWRPPRLPRPRPRPNRFPRP
5. RRIRNRPPRLPRPRPRPHFGPRP
6. RRIRNRPPRLPRPRPRPSVRPRP
7. RRIRDRPPRLPRPRPRPTLEPRP
8. RRIRCRPPRLPRPRPRPMREPRP

1: -0.183; 2: 0.086; 3: 0.017; 4: -0.0274; 5: -0.104; 6: -0.00578; 7: 1.06; 8: 0.907

# batch size: 2; output shrunken log2 fold change per entry
1. RRIRNRPPRLPRPRPRPCAMPRP
2. RRIRVRPPRLPRPRPRPESKPRP

1: -0.132; 2: 0.00683

###

For each entry below, report its shrunken log2 fold change value.
# Test system: Escherichia coli TOP10;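 also: peptides expressed intracellularly from a pBAD plasmid library in pooled LB shake-flask culture, induced with 0.3% L-arabinose, DNA abundance read by NGS, three biological replicates, DESeq2 with apeglm shrinkage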
# procedure.text: shrunken log2 fold change of peptide-encoding DNA abundance (4.5 h post-induction vs induction); higher = less antimicrobial activity (less host growth inhibition)
# condition: time post-induction: 4.5 h; library: site-saturation at positions 5, 18, 19, 20
Numbers only.

# batch size: 4; output shrunken log2 fold change per entry
1. RRIRQRPPRLPRPRPRPNHWPRP
2. RRIRFRPPRLPRPRPRPKGKPRP
3. RRIRARPPRLPRPRPRPPKHPRP
4. RRIRHRPPRLPRPRPRPKQDPRP

1: -0.176; 2: 0.195; 3: 0.472; 4: -0.557

# batch size: 4; output shrunken log2 fold change per entry
1. RRIRRRPPRLPRPRPRPKFRPRP
2. RRIRGRPPRLPRPRPRPYEPPRP
3. RRIRRRPPRLPRPRPRPWIAPRP
4. RRIRERPPRLPRPRPRPYGVPRP

1: -0.0588; 2: 0.0834; 3: -0.00369; 4: -0.128

# batch size: 2; output shrunken log2 fold change per entry
1. RRIRRRPPRLPRPRPRPQKHPRP
2. RRIRFRPPRLPRPRPRPRSRPRP

1. 0.0365
2. -0.016

# batch size: 4; output shrunken log2 fold change per entry
1. RRIRTRPPRLPRPRPRPGSAPRP
2. RRIRDRPPRLPRPRPRPTCKPRP
3. RRIRPRPPRLPRPRPRPSWCPRP
4. RRIRVRPPRLPRPRPRPNVWPRP

1. 0.362
2. 0.0657
3. 0.108
4. 0.0782

# batch size: 3; output shrunken log2 fold change per entry
1. RRIRFRPPRLPRPRPRPDKIPRP
2. RRIRPRPPRLPRPRPRPAFMPRP
3. RRIRHRPPRLPRPRPRPFSLPRP

1: -0.0546; 2: -0.0434; 3: -0.277

# batch size: 4; output shrunken log2 fold change per entry
1. RRIRWRPPRLPRPRPRPAEEPRP
2. RRIRLRPPRLPRPRPRPPADPRP
3. RRIRGRPPRLPRPRPRPSITPRP
4. RRIRSRPPRLPRPRPRPMPGPRP

[3.62, 0.797, 0.0975, -0.102]

# batch size: 7; output shrunken log2 fold change per entry
1. RRIRPRPPRLPRPRPRPPVTPRP
2. RRIRGRPPRLPRPRPRPNGAPRP
3. RRIRSRPPRLPRPRPRPQAGPRP
4. RRIRSRPPRLPRPRPRPYDTPRP
5. RRIRFRPPRLPRPRPRPGEPPRP
6. RRIRLRPPRLPRPRPRPHNPPRP
7. RRIRDRPPRLPRPRPRPWNCPRP

1. 0.147
2. 0.827
3. 0.165
4. -0.532
5. 0.118
6. -0.883
7. -0.3

# batch size: 4; output shrunken log2 fold change per entry
1. RRIRDRPPRLPRPRPRPPVFPRP
2. RRIRGRPPRLPRPRPRPPWNPRP
3. RRIRKRPPRLPRPRPRPKKTPRP
4. RRIRHRPPRLPRPRPRPDAFPRP

1. 1.59
2. 0.411
3. 0.0396
4. -0.0702
